FIC50 listing for selected molecules.
- Test system: Mycobacterium tuberculosis Erdman (autoluminescent)
- test.protocol: FIC50 (Loewe) at 50% inhibition (log2); higher = more antagonistic
- experimental.conditions: in vitro model: cholesterol-high 0.2 mM; time point: constant (~7 days, model-specific)

| molecule | system.name | assay.metric | result.value |
| --- | --- | --- | --- |
| COc1nc2ccc(Br)cc2cc1[C@@H](c1ccccc1)[C@@](O)(CCN(C)C)c1cccc2ccccc12 [bedaquiline] + O=[N+]([O-])c1cn2c(n1)OC[C@@H](OCc1ccc(OC(F)(F)F)cc1)C2 [pretomanid] | Mycobacterium tuberculosis Erdman (autoluminescent) | FIC50 | 0.673 |
| CC(=O)NC[C@H]1CN(c2ccc(N3CCOCC3)c(F)c2)C(=O)O1 [linezolid] + CO[C@H]1/C=C/O[C@@]2(C)Oc3c(C)c(O)c4c(O)c(c(/C=N/N5CCN(C)CC5)c(O)c4c3C2=O)NC(=O)/C(C)=C\C=C\[C@H](C)[C@H](O)[C@@H](C)[C@@H](O)[C@@H](C)[C@H](OC(C)=O)[C@@H]1C [rifampicin] | Mycobacterium tuberculosis Erdman (autoluminescent) | FIC50 | -0.0412 |
| CC(=O)NC[C@H]1CN(c2ccc(N3CCOCC3)c(F)c2)C(=O)O1 [linezolid] + NC(=O)c1cnccn1 [pyrazinamide] | Mycobacterium tuberculosis Erdman (autoluminescent) | FIC50 | 0.0387 |
| NNC(=O)c1ccncc1 [isoniazid] + CC(=O)NC[C@H]1CN(c2ccc(N3CCOCC3)c(F)c2)C(=O)O1 | Mycobacterium tuberculosis Erdman (autoluminescent) | FIC50 | -0.123 |
| COc1nc2ccc(Br)cc2cc1[C@@H](c1ccccc1)[C@@](O)(CCN(C)C)c1cccc2ccccc12 [bedaquiline] + CO[C@H]1/C=C/O[C@@]2(C)Oc3c(C)c(O)c4c(O)c(c(/C=N/N5CCN(C6CCCC6)CC5)c(O)c4c3C2=O)NC(=O)/C(C)=C\C=C\[C@H](C)[C@H](O)[C@@H](C)[C@@H](O)[C@@H](C)[C@H](OC(C)=O)[C@@H]1C [rifapentine] | Mycobacterium tuberculosis Erdman (autoluminescent) | FIC50 | 0.211 |
| O=[N+]([O-])c1cn2c(n1)OC[C@@H](OCc1ccc(OC(F)(F)F)cc1)C2 [pretomanid] + CO[C@H]1/C=C/O[C@@]2(C)Oc3c(C)c(O)c4c(O)c(c(/C=N/N5CCN(C)CC5)c(O)c4c3C2=O)NC(=O)/C(C)=C\C=C\[C@H](C)[C@H](O)[C@@H](C)[C@@H](O)[C@@H](C)[C@H](OC(C)=O)[C@@H]1C [rifampicin] | Mycobacterium tuberculosis Erdman (autoluminescent) | FIC50 | 0.509 |

Determine its reported FIC50: COc1nc2ccc(Br)cc2cc1[C@@H](c1ccccc1)[C@@](O)(CCN(C)C)c1cccc2ccccc12 [bedaquiline] + NNC(=O)c1ccncc1 [isoniazid]
0.284

Determine its reported FIC50: COc1nc2ccc(Br)cc2cc1[C@@H](c1ccccc1)[C@@](O)(CCN(C)C)c1cccc2ccccc12 [bedaquiline] + CO[C@H]1/C=C/O[C@@]2(C)Oc3c(C)c(O)c4c(O)c(c(/C=N/N5CCN(C)CC5)c(O)c4c3C2=O)NC(=O)/C(C)=C\C=C\[C@H](C)[C@H](O)[C@@H](C)[C@@H](O)[C@@H](C)[C@H](OC(C)=O)[C@@H]1C [rifampicin]
0.194

Determine its reported FIC50: CC[C@@H](CO)NCCN[C@@H](CC)CO [ethambutol] + NC(=O)c1cnccn1 [pyrazinamide]
0.961

###

- Test system: Mycobacterium tuberculosis Erdman (autoluminescent)
- test.protocol: AUC25, normalised area under dose response up to IC25 (three-drug combination) (fraction (0-1)); higher = more potent at low dose
- experimental.conditions: in vitro model: cholesterol 0.05 mM; time point: constant (~7 days, model-specific)
assay.metric: AUC25
The response must contain the number and no unit.

Known AUC25 results, listed for orientation:
| compound | AUC25 |
| --- | --- |
| CC[C@@H](CO)NCCN[C@@H](CC)CO [ethambutol] + CC(=O)NC[C@H]1CN(c2ccc(N3CCOCC3)c(F)c2)C(=O)O1 [linezolid] + COc1c(N2C[C@@H]3CCCN[C@@H]3C2)c(F)cc2c(=O)c(C(=O)O)cn(C3CC3)c12 [moxifloxacin] | 0.149 |
| COc1nc2ccc(Br)cc2cc1[C@@H](c1ccccc1)[C@@](O)(CCN(C)C)c1cccc2ccccc12 [bedaquiline] + NNC(=O)c1ccncc1 [isoniazid] + CO[C@H]1/C=C/O[C@@]2(C)Oc3c(C)c(O)c4c(O)c(c(/C=N/N5CCN(C6CCCC6)CC5)c(O)c4c3C2=O)NC(=O)/C(C)=C\C=C\[C@H](C)[C@H](O)[C@@H](C)[C@@H](O)[C@@H](C)[C@H](OC(C)=O)[C@@H]1C [rifapentine] | 0.0859 |

We next turn to a different compound, shown below.
Determine its reported AUC25: CC(=O)NC[C@H]1CN(c2ccc(N3CCOCC3)c(F)c2)C(=O)O1 [linezolid] + NC(=O)c1cnccn1 [pyrazinamide] + CO[C@H]1/C=C/O[C@@]2(C)Oc3c(C)c(O)c4c(O)c(c(/C=N/N5CCN(C6CCCC6)CC5)c(O)c4c3C2=O)NC(=O)/C(C)=C\C=C\[C@H](C)[C@H](O)[C@@H](C)[C@@H](O)[C@@H](C)[C@H](OC(C)=O)[C@@H]1C [rifapentine]
0.143

###

- Test system: Mycobacterium tuberculosis Erdman (autoluminescent)
- test.protocol: AUC25, normalised area under dose response up to IC25 (three-drug combination) (fraction (0-1)); higher = more potent at low dose
- experimental.conditions: in vitro model: cholesterol 0.05 mM; time point: constant (~7 days, model-specific)
AUC25 listing for selected molecules.
The response must contain the number and no unit.

| molecule | AUC25 |
| --- | --- |
| NNC(=O)c1ccncc1 [isoniazid] + O=[N+]([O-])c1cn2c(n1)OC[C@@H](OCc1ccc(OC(F)(F)F)cc1)C2 [pretomanid] + CO[C@H]1/C=C/O[C@@]2(C)Oc3c(C)c(O)c4c(O)c(c(/C=N/N5CCN(C6CCCC6)CC5)c(O)c4c3C2=O)NC(=O)/C(C)=C\C=C\[C@H](C)[C@H](O)[C@@H](C)[C@@H](O)[C@@H](C)[C@H](OC(C)=O)[C@@H]1C [rifapentine] | 0.0995 |

Determine its reported AUC25: COc1nc2ccc(Br)cc2cc1[C@@H](c1ccccc1)[C@@](O)(CCN(C)C)c1cccc2ccccc12 [bedaquiline] + O=[N+]([O-])c1cn2c(n1)OC[C@@H](OCc1ccc(OC(F)(F)F)cc1)C2 [pretomanid] + CO[C@H]1/C=C/O[C@@]2(C)Oc3c(C)c(O)c4c(O)c(c(/C=N/N5CCN(C)CC5)c(O)c4c3C2=O)NC(=O)/C(C)=C\C=C\[C@H](C)[C@H](O)[C@@H](C)[C@@H](O)[C@@H](C)[C@H](OC(C)=O)[C@@H]1C [rifampicin]
0.116

Determine its reported AUC25: CC(C)/N=c1\cc2n(-c3ccc(Cl)cc3)c3ccccc3nc-2cc1Nc1ccc(Cl)cc1 [clofazimine] + COc1c(N2C[C@@H]3CCCN[C@@H]3C2)c(F)cc2c(=O)c(C(=O)O)cn(C3CC3)c12 [moxifloxacin] + CO[C@H]1/C=C/O[C@@]2(C)Oc3c(C)c(O)c4c(O)c(c(/C=N/N5CCN(C6CCCC6)CC5)c(O)c4c3C2=O)NC(=O)/C(C)=C\C=C\[C@H](C)[C@H](O)[C@@H](C)[C@@H](O)[C@@H](C)[C@H](OC(C)=O)[C@@H]1C [rifapentine]
0.117

###

GRinf listing for selected molecules.
- Tested on: Mycobacterium tuberculosis Erdman (autoluminescent)
- test.protocol: GRinf, maximum normalised growth rate inhibition (three-drug combination) (unitless (-1 to 1)); higher = less effect (negative = killing)
- experimental.conditions: in vitro model: intracellular J774; time point: constant = terminal

Known GRinf results, listed for orientation:
| molecule | result.value |
| --- | --- |
| COc1nc2ccc(Br)cc2cc1[C@@H](c1ccccc1)[C@@](O)(CCN(C)C)c1cccc2ccccc12 [bedaquiline] + CC(C)/N=c1\cc2n(-c3ccc(Cl)cc3)c3ccccc3nc-2cc1Nc1ccc(Cl)cc1 [clofazimine] + NC(=O)c1cnccn1 [pyrazinamide] | -0.197 |
| COc1nc2ccc(Br)cc2cc1[C@@H](c1ccccc1)[C@@](O)(CCN(C)C)c1cccc2ccccc12 [bedaquiline] + CC[C@@H](CO)NCCN[C@@H](CC)CO [ethambutol] + NNC(=O)c1ccncc1 [isoniazid] | -0.401 |
| COc1c(N2C[C@@H]3CCCN[C@@H]3C2)c(F)cc2c(=O)c(C(=O)O)cn(C3CC3)c12 [moxifloxacin] + O=[N+]([O-])c1cn2c(n1)OC[C@@H](OCc1ccc(OC(F)(F)F)cc1)C2 [pretomanid] + NC(=O)c1cnccn1 [pyrazinamide] | -0.384 |

We next turn to a different molecule, shown below.
Determine its reported GRinf: CC[C@@H](CO)NCCN[C@@H](CC)CO [ethambutol] + NNC(=O)c1ccncc1 [isoniazid] + CO[C@H]1/C=C/O[C@@]2(C)Oc3c(C)c(O)c4c(O)c(c(/C=N/N5CCN(C)CC5)c(O)c4c3C2=O)NC(=O)/C(C)=C\C=C\[C@H](C)[C@H](O)[C@@H](C)[C@@H](O)[C@@H](C)[C@H](OC(C)=O)[C@@H]1C [rifampicin]
-0.321
